Entries and their Percent Effect values follow.
# Tested on: Wolbachia pipientis
# experimentNotes: Anti-Wolbachia Cell-Based Screen
# Assay type: functional
# Set-up: scale not given: in the data most compounds retested in dose-response had high values
# condition: 5 µM
The campaign covered roughly 48,000 compounds. About 13,000 (27%) showed an effect of 50% or more. The list shows a part of the results.
The response must be a number in % with no trailing unit.

Cc1nc(C2CCCN(C(C)C)C2)sc1Br (stereo unspecified) ... 117
O=C(COc1ccccc1)N1C[C@@H](O)[C@H](N2CCCC2)C1.O=CO ... 3.295
CCOC(=O)[C@@H]1[C@H]2CN(C(=O)OC)CCN2C[C@H]1c1ccccc1 ... 104.3
CCOC(=O)[C@@H]1[C@@H](c2ccccc2)CN2CCN(S(C)(=O)=O)C[C@H]12 ... 100.2
Cc1ccc2c(n1)N(CC1CC1)CCN(S(=O)(=O)C1CC1)C2.O=C(O)C(F)(F)F ... 2.676

Please find the next compound below.
Return Percent Effect for the following compound: `O=C(C1CC1)N1CCN2C[C@H](c3ccccc3)[C@@H](CO)[C@H]2C1`
105.4
